# assay text: PG796(MRx102) solubility in emulsion formulations
# Type: physicochemical
# settings: emulsion formulation, aqueous with cosolvent or surfactant or cyclodextrin; emulsion target pH 4.0 (acetate); 1 wk
measured attribute: solubility at 1 wk

Look up solubility at 1 wk: CC(C)[C@]12O[C@H]1[C@@H]1O[C@]13[C@]1(O[C@H]1C[C@H]1c4c(C(=O)c5ccccc5)oc(OC(=O)c5ccccc5)c4CC[C@@]13C)[C@@H]2O
1000 µg/mL

----------
# assay text: PG796(MRx102) solubility in emulsion formulations
# Type: physicochemical
# settings: emulsion formulation, aqueous with cosolvent or surfactant or cyclodextrin; emulsion target pH 5.0 (acetate); 24 hr
measured attribute: solubility at 24 hr (µg/mL)
// note: answer is a bare numeric in µg/mL

Sample CC(C)[C@]12O[C@H]1[C@@H]1O[C@]13[C@]1(O[C@H]1C[C@H]1c4c(C(=O)c5ccccc5)oc(OC(=O)c5ccccc5)c4CC[C@@]13C)[C@@H]2O — what was its solubility at 24 hr?
922

----------
# assay text: PG796(MRx102) solubility in emulsion formulations
# Assay type: physicochemical
# settings: emulsion formulation, aqueous with cosolvent or surfactant or cyclodextrin; emulsion target pH 4.0 (acetate); 2 wk
measured attribute: solubility at 2 wk (µg/mL)
# value in µg/mL; strip the unit string

State the recorded solubility at 2 wk for this entry: CC(C)[C@]12O[C@H]1[C@@H]1O[C@]13[C@]1(O[C@H]1C[C@H]1c4c(C(=O)c5ccccc5)oc(OC(=O)c5ccccc5)c4CC[C@@]13C)[C@@H]2O [PG796]
848

----------
# System: IL-2 production by Jurkat cells
# assay text: cells
# Assay type: cell-based, human
# settings: Homo sapiens, Jurkat, 24 h, read-out: Immunosuppression IL-2 (IC50)
measured attribute: pIC50
# log scale: pIC50 equals minus log10 of the concentration in mol/L

Item: CC(C)[C@]12O[C@H]1[C@@H]1O[C@]13[C@@]1(OC(=O)O[C@H]21)[C@H](Cl)C[C@H]1C2=C(CC[C@@]13C)C(=O)OC2 [PG762] Test system: IL-2 production by Jurkat cells Read-out: pIC50 Value: ?
8.05

----------
# assay text: PG796(MRx102) solubility in emulsion formulations
# Type: physicochemical
# settings: emulsion formulation, aqueous with cosolvent or surfactant or cyclodextrin; emulsion target pH 7.0 (phosphate); 24 hr
measured attribute: solubility at 24 hr (µg/mL)
Your answer should be a plain number; it is taken to be in µg/mL.

Given the molecule CC(C)[C@]12O[C@H]1[C@@H]1O[C@]13[C@]1(O[C@H]1C[C@H]1c4c(C(=O)c5ccccc5)oc(OC(=O)c5ccccc5)c4CC[C@@]13C)[C@@H]2O [PG796] , what is its reported solubility at 24 hr?
849

FYI, the data here is from patent US20160038454A1.
